- ASSAY_COMMENT: label from the status in PepcDB records;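 further: failed if final PepcDB status was selected cloned or expressed and not failed if soluble or beyond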

{"columns": ["SEQUENCE_RECORD", "protein production"],
 "data": [
  ["MSLDGMPAKQQHNNTGESVELHFHYPIKGKQEPKNSHLVVLIEPKIEINKVIPESYQKEFEKSLFLQLSSFLERKGYSVSQFKDASEIPQDIKEKALLVLRMDGNVAILEDIVEESDALSEEKVIDMSSGYLNLNFVEPKSEDIIHSFGIDVSKIKAVIERVELRRTNSGGFVPKTFVHRIKETDHDQAIRKIMNQAYHKVMVHITKELSKKHMEHYEKVSSEMKKRKEGHHHHHH", "not failed"],
  ["MNSAPFLIFGGILAWLFVYFLRLRRFYAGEFLLGLFIFGIAITIQSIIQKASLVWFNVHAKLLISLWLGFLAGFIQEGIKYIFVKGMTPYKGAMVGLGFGIAEVILLAVVATLAGSSNVPLYLLVASATERFFAVVFHVASTSLLASSNLRIFLGVFTVHGLVDTLASYSQLSRVLNTPKVFLIEAVFGVFALFLLLISLPRIRVEKEEGPKW", "failed"],
  ["MLGEFKHYKTRLAHGGIPQEVQNLLLEYGVEIFAEMLVEGLSRIKRCTDEGRVLMSLDLQVLINGLQHFVPTKVKPKLQIVETFIKAYYLPETEYVHWARAHPEYTKAQVVGLVNLVATMKGWKRKTRLEVIEKIESASM", "failed"],
  ["MNYASNTFELIAKEWLQMKDWAEITKTRRLDMLERVVFPAIGKLPVREITPHHILKILQETAKRGAPTVAAEARRTISSVFELAVATLRADSDPVWPVRKALPANKTQHLEHHHHHH", "not failed"]
]}

###

- ASSAY_COMMENT: label from the status in PepcDB records

{"columns": ["SEQUENCE_RECORD", "protein production"],
 "data": [
  ["MIGAILAGGYGKRLKPITDSIPKALVEIKDNYTIMDRQLFDFSIMGIEAVYILSGYLGNKIEERYGSRYRDMNIYYLREEKPLGTLYSLRNLIDEVKDDDIVLRNGDTVTDVNFLNFLKKAQDQKYYITMYVTRMKSPFGIVETFGDQIVQFREKPELNHYINAGLYYIKSDAFPYFFEKYIDRDLETTVFPRMAREGLIGSYTEEAMWIGIDSEKDLERIRADYRNREDYPWGYLKVLYDDDRSRLLEYAIKAGSDTEIDCGDGCILRIQSGLGTFGDSSDEKFRNGDVRSISGKVRVNAFENTRLELIISKKLEHHHHHH", "failed"],
  ["MSQHLFTAFILTALAGLSTGIGSLIAFVTKHTNKTFLSVSLGFSAGVMIYVSMIEIFPTAQTILTKAMDKKSGSWLTVLAFFGGILLIAIIDKLIPSEENPHEIKTIEEEDQKPTKLMRMGLMTAIAIGIHNFPEGLATFISGLQDASIAIPIVIAIAIHNIPEGIAVSVPIYQATGSKKKAFTYSFLSGLAEPLGAIIGWFLLMPIMNNIVYGAIFSAVAGIMVFISLDELLPAAEEYGKHHLAIYGVISGMLIMAVSLLLFI", "failed"],
  ["MKKMKTLTLFLSLLFSFPFVLSAQMVGETLQKVSAALDNRQWDQAVTLFRQAVNTNVEKAEMFYWTGVDKSLEVSSRIGRELAAYYKKSRSYDKAYLFYKELLQKSPNDVNCLVSCAEMEVCRGRESEALETYRKVLSLDADNLAANIFIGNYLYLKAEREKKQLEADYKKISAPTRMQYARYRDGLSRVMSTGYGKAREYLQKVISQFPSTEAQKTLERIKLIEKEVNR", "failed"]
]}
